These data points were gathered from patent US20210347873A1.

Let's look at some binders and their measured mouse B lymphocyte proliferation (OD450 nm), antibody 0.032 nM.
# Tested Target: mouse BLyS protein (mouse, UniProt Q9WU72 69-309)
# Sequence (Q9WU72 69-309): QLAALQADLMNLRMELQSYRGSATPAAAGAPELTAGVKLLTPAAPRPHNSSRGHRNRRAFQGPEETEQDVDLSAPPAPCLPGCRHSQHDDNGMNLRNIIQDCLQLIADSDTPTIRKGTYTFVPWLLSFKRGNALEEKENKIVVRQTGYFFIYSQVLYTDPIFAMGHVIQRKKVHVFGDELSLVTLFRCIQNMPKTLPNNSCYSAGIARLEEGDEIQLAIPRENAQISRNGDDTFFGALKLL
# Assay Overview: cell-based or functional assay
Property Label: mouse B lymphocyte proliferation (OD450 nm), antibody 0.032 nM

INSERT INTO measurements (binder, value_observed) VALUES
  ('L9G7 (antibody, V domains shown, From a human naive scFv phage library; also called human BLyS antibody L9G7) VH: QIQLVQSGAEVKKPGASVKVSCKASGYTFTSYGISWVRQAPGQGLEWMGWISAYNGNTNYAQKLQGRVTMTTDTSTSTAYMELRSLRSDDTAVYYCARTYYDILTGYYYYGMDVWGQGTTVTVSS VL: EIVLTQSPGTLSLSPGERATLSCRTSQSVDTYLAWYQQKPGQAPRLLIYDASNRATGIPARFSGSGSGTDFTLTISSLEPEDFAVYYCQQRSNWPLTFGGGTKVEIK', '2340 OD450 nm'),
  ('89A2G5E7 (antibody, V domains shown, Mouse hybridoma monoclonal antibody purified on Protein G) VH: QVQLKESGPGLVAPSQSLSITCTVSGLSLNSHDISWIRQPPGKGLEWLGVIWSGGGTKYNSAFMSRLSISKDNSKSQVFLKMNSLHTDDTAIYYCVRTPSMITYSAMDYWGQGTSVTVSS VL: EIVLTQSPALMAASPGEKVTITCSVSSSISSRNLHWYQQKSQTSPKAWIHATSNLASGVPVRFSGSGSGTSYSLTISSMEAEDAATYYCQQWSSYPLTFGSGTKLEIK', '2390 OD450 nm'),
  ('93C6F10D3 (antibody, V domains shown, Mouse hybridoma monoclonal antibody purified on Protein G) VH: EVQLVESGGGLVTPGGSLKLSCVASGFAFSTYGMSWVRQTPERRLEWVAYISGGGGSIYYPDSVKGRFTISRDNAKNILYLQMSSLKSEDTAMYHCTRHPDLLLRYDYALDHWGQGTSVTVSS VL: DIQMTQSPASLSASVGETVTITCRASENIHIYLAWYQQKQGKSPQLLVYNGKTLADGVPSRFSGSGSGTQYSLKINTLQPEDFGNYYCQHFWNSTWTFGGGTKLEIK', '2540 OD450 nm'),
  ('67A2E1D10 (antibody, V domains shown, Mouse hybridoma monoclonal antibody purified on Protein G) VH: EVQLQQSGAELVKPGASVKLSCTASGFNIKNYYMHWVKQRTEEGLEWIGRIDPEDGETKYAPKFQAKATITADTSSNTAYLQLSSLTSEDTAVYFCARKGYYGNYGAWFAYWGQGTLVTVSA VL: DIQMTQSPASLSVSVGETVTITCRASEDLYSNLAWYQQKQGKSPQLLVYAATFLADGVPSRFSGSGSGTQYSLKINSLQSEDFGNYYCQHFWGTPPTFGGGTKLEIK', '2260 OD450 nm'),
  ('78C11D2D12 (antibody, V domains shown, Mouse hybridoma monoclonal antibody purified on Protein G) VH: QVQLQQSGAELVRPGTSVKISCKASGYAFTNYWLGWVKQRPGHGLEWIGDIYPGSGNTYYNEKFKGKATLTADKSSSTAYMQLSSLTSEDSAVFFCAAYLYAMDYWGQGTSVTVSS VL: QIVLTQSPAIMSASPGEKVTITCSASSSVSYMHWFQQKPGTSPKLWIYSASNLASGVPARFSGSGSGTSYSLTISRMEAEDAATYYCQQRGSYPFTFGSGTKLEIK', '2390 OD450 nm');
